Test system: Pulicinae
Test: In vitro systemic flea efficacy using membrane feeding assay.
Assay type: functional
quantity_name: Activity

# compound, Activity
measured = [
    ("C=C(C)[C@H]1C(=O)c2c3c(cc4c5c(n1c24)[C@@]1(C)C(CC[C@H]2[C@](C)(/C=C/C(C)=C/C(=O)NC4CC4)[C@@H](O)CC[C@@]21C)C5)C1=CC(C)(C)OC(C)(C)C1[C@@H]3O (stereo not given in full)", "1 p.p.m."),
    ("C=C(C)[C@H]1C(=O)c2c3c(cc4c5c(n1c24)[C@@]1(C)C(CC[C@H]2[C@](C)(/C=C/C(C)=C/C(=O)NCC)[C@@H](O)CC[C@@]21C)C5)C1=CC(C)(C)OC(C)(C)C1[C@@H]3O (stereo not given in full)", "10 p.p.m."),
    ("C=C(C)[C@H]1C(=O)c2c3c(cc4c5c(n1c24)[C@@]1(C)C(CC[C@H]2[C@](C)(/C=C/C=C/C(=O)N(C)C)[C@@H](O)CC[C@@]21C)C5)C1=CC(C)(C)OC(C)(C)C1[C@@H]3O (stereo not given in full)", "0.1 p.p.m."),
]

Query string: Given C=CC/C(=C\C=C\[C@]1(C)[C@@H](O)CC[C@@]2(C)[C@H]1CCC1Cc3c(n4c5c(c6c(cc35)C3=CC(C)(C)OC(C)(C)C3[C@@H]6O)C(=O)[C@@H]4C(=C)C)[C@@]12C)C(=O)N(C)C (stereo not given in full) , state its recorded Activity.
Result string: 1 p.p.m.

Query string: Suppose we examine the compound C=C(C)[C@H]1C(=O)c2c3c(cc4c5c(n1c24)[C@@]1(C)C(CC[C@H]2[C@](C)(/C=C/C=C(\CCC)C(=O)NCC)[C@@H](O)CC[C@@]21C)C5)C1=CC(C)(C)OC(C)(C)C1[C@@H]3O (stereo in doubt) ; what Activity value has been reported?
Result string: 10 p.p.m.

---

Activity values by entry
System: Pulicinae
Assay: In vitro systemic flea efficacy using membrane feeding assay.
Assay type: functional
Value expressed in p.p.m.; do not type the unit.

See these solved cases before continuing.
# molecule, Activity / p.p.m.
measured = [
    ("C=C(C)[C@H]1C(=O)c2c3c(cc4c5c(n1c24)[C@@]1(C)C(CC[C@H]2[C@](C)(/C=C/C=C(\\CC)C(N)=O)[C@@H](O)CC[C@@]21C)C5)C1=CC(C)(C)OC(C)(C)C1[C@@H]3O (stereo not given in full)", 1),
    ("C=C(C)[C@H]1C(=O)c2c3c(cc4c5c(n1c24)[C@@]1(C)C(CC[C@H]2[C@](C)(/C=C/C=C(\\C)C(=O)O)[C@@H](O)CC[C@@]21C)C5)C1=CC(C)(C)OC(C)(C)C1[C@@H]3O (stereo not given in full)", 1),
    ("C=C(C)[C@H]1C(=O)c2c3c(cc4c5c(n1c24)[C@@]1(C)C(CC[C@H]2[C@](C)(/C=C/C=C(\\CC)C(=O)N(C)C)[C@@H](O)CC[C@@]21C)C5)C1=CC(C)(C)OC(C)(C)C1[C@@H]3O (stereo not given in full)", 1),
]

Query string: Look up Activity: C=C(C)[C@H]1C(=O)c2c3c(cc4c5c(n1c24)[C@@]1(C)C(CC[C@H]2[C@](C)(/C=C/C=C(\F)C(=O)NCC)[C@@H](O)CC[C@@]21C)C5)C1=CC(C)(C)OC(C)(C)C1[C@@H]3O (stereo not given in full)
Result string: 1

Query string: What does the data say about its Activity? Entry: C=C/C=C/[C@]1(C)[C@@H](O)CC[C@@]2(C)[C@H]1CCC1Cc3c(n4c5c(c6c(cc35)C3=CC(C)(C)OC(C)(C)C3[C@@H]6O)C(=O)[C@@H]4C(=C)C)[C@@]12C (stereo not given in full)
Result string: 10

Query string: Quick one: Activity for C=C(C)[C@H]1C(=O)c2c3c(cc4c5c(n1c24)[C@@]1(C)C(CC[C@H]2[C@](C)(/C=C/C=C(\CCCC)C(=O)NC(C)(C)C)[C@@H](O)CC[C@@]21C)C5)C1=CC(C)(C)OC(C)(C)C1[C@@H]3O (stereo not given in full) ?
Result string: 10

Query string: # query: Activity of entry C=C(C)[C@H]1C(=O)c2c3c(cc4c5c(n1c24)[C@@]1(C)C(CC[C@H]2[C@](C)(/C=C/C=C/C(=O)NCc4ccccc4)[C@@H](O)CC[C@@]21C)C5)C1=CC(C)(C)OC(C)(C)C1[C@@H]3O (stereo not given in full)
Result string: 10

Query string: Query (molecule): C=C(C)[C@H]1C(=O)c2c3c(cc4c5c(n1c24)[C@@]1(C)C(CC[C@H]2[C@](C)(/C=C/C=C/C(=O)OCC)[C@@H](O)CC[C@@]21C)C5)C1=CC(C)(C)OC(C)(C)C1[C@@H]3O (stereo not given in full) ; field requested: Activity
Result string: 1

Query string: Recorded Activity of C=C(C)[C@H]1C(=O)c2c3c(cc4c5c(n1c24)[C@@]1(C)C(CC[C@H]2[C@](C)(/C=C/C=C/C(=O)NCC)[C@@H](O)CC[C@@]21C)C5)C1=CC(C)(C)OC(C)(C)C1[C@@H]3O (stereo not given in full) , please.
Result string: 1

Query string: Fill in the blank: the reported Activity of C=C(C)[C@H]1C(=O)c2c3c(cc4c5c(n1c24)[C@@]1(C)C(CC[C@H]2[C@](C)(/C=C/C=C(\CC)C(=O)N4CCCC4)[C@@H](O)CC[C@@]21C)C5)C1=CC(C)(C)OC(C)(C)C1[C@@H]3O (stereo not given in full) is ____.
Result string: 10
